assay_method_text: Aqueous solubility of compound incubated for 90 mins under shaking condition
Assay type: physicochemical
run_conditions: buffer
value_kind: solubility at […]

Study these solved cases before continuing.
{"compound": "Nc1nnc(CN(Cc2ccc(S(N)(=O)=O)cc2F)C(=O)CSc2cc(F)cc(F)c2Cl)o1", "result": "330 µg/mL"}
{"compound": "N#Cc1cc(F)c(CN(Cc2nnc(N)o2)C(=O)CSc2cc(F)cc(F)c2Cl)c(F)c1", "result": "60 µg/mL"}
{"compound": "N#Cc1ccc(CN(Cc2nnc(N)o2)C(=O)COc2ccccc2Cl)cn1", "result": "850 µg/mL"}

Record summary for Nc1nnc(CN(Cc2ccc(O)nc2)C(=O)COc2cc(F)cc(F)c2C2CC2)o1 : reported solubility at […] = 150 µg/mL
